- System: DU-145 prostate
- Procedure summary: NCI tumour cell line growth inhibition, 48 h
Readout: TGI

Tell me the measured TGI of CCN(CC(O)COc1ccc2c(c1)[n+]([O-])nc(N)[n+]2[O-])C(C)=O (stereo unspecified) , please.
> 100 µM

Given the compound `COc1cccc2c1CCc1sc(CN3CCN(C)CC3)nc1-2` , what is its reported TGI?
> 100 µM

Any idea what its TGI is? The compound is `CCCC(CCC(=O)O)(CCC(=O)O)[N+](=O)[O-]`
> 100 µM

// lookup TGI for `CC(C)Cc1cc(-c2cccn2C)c(C#N)c(=O)[nH]1`
> 100 µM

For CN(C)CCNC(=O)c1cccc2c(NC(CCCN=C(N)N)C(=O)O)c3ccccc3nc12 (stereo unspecified) , what is its reported TGI?
> 100 µM

I'd like to know its TGI. The compound in question is `CC(C)(C)c1ccc(OCCOc2ccc(C(C)(C)C)cc2NC=O)c(NC=O)c1`
> 87.9 µM
